Taken from ChEMBL document CHEMBL2203140.

Quick reference: IC50 of the listed items.
- System: HT-1080
- experimentSummary: Cytotoxicity against human HT1080 cells after 48 hrs by MTT assay
- Assay type: functional, cell-based
- appliedConditions: HT-1080, 48 h
Number in µM, nothing else.

>>> endpointvalue("C[C@@H]1CC[C@@]2(OC1)O[C@H]1C[C@H]3[C@@H]4CC=C5C[C@@H](O[C@@H]6O[C@H](CO)[C@@H](O)[C@H](O)[C@H]6NC(=O)/C=C/c6ccccc6[N+](=O)[O-])CC[C@]5(C)[C@H]4CC[C@]3(C)[C@H]1[C@@H]2C")
36.5
>>> endpointvalue("COc1ccc(/C=C/C(=O)N[C@H]2[C@H](O[C@H]3CC[C@@]4(C)C(=CC[C@H]5[C@@H]6C[C@@H]7O[C@]8(CC[C@@H](C)CO8)[C@@H](C)[C@@H]7[C@@]6(C)CC[C@@H]54)C3)O[C@H](CO)[C@@H](O)[C@@H]2O)cc1")
3.5

From here, focus on the item given below.
Query :: Could you please provide reported IC50 for `COc1ccccc1/C=C/C(=O)N[C@H]1[C@H](O[C@H]2CC[C@@]3(C)C(=CC[C@H]4[C@@H]5C[C@@H]6O[C@]7(CC[C@@H](C)CO7)[C@@H](C)[C@@H]6[C@@]5(C)CC[C@@H]43)C2)O[C@H](CO)[C@@H](O)[C@@H]1O` ? Thanks!
Result :: 4.3

----------
- Tested on: MCF7
- experimentSummary: Cytotoxicity against human MCF7 cells after 48 hrs by MTT assay
- Type: functional, cell-based
- appliedConditions: MCF7, 48 h
IC50 strictly under 20 µM means yes (1); at 20 µM or over means no (0).

>>> labelclass("COc1ccccc1/C=C/C(=O)N[C@H]1[C@H](O[C@H]2CC[C@@]3(C)C(=CC[C@H]4[C@@H]5C[C@@H]6O[C@]7(CC[C@@H](C)CO7)[C@@H](C)[C@@H]6[C@@]5(C)CC[C@@H]43)C2)O[C@H](CO)[C@@H](O)[C@@H]1O")
"no (0)"
>>> labelclass("C[C@@H]1CC[C@@]2(OC1)O[C@H]1C[C@H]3[C@@H]4CC=C5C[C@@H](O[C@@H]6O[C@H](CO)[C@@H](O)[C@H](O)[C@H]6NC(=O)/C=C/c6ccccc6)CC[C@]5(C)[C@H]4CC[C@]3(C)[C@H]1[C@@H]2C")
"yes (1)"
>>> labelclass("Cc1ccc(/C=C/C(=O)N[C@H]2[C@H](O[C@H]3CC[C@@]4(C)C(=CC[C@H]5[C@@H]6C[C@@H]7O[C@]8(CC[C@@H](C)CO8)[C@@H](C)[C@@H]7[C@@]6(C)CC[C@@H]54)C3)O[C@H](CO)[C@@H](O)[C@@H]2O)cc1")
"yes (1)"

Query :: Could you please tell me whether IC50 recorded for `COc1cccc(/C=C/C(=O)N[C@H]2[C@H](O[C@H]3CC[C@@]4(C)C(=CC[C@H]5[C@@H]6C[C@@H]7O[C@]8(CC[C@@H](C)CO8)[C@@H](C)[C@@H]7[C@@]6(C)CC[C@@H]54)C3)O[C@H](CO)[C@@H](O)[C@@H]2O)c1` is less than 20 µM?
Result :: no (0)

Query :: hey, is IC50 for `C[C@@H]1CC[C@@]2(OC1)O[C@H]1C[C@H]3[C@@H]4CC=C5C[C@@H](O[C@@H]6O[C@H](CO)[C@@H](O)[C@H](O)[C@H]6NC(=O)/C=C/c6ccccc6[N+](=O)[O-])CC[C@]5(C)[C@H]4CC[C@]3(C)[C@H]1[C@@H]2C` lower than 20 µM or not?
Result :: no (0)

Query :: Quick check: IC50 of `COc1cccc(/C=C/C(=O)N[C@H]2[C@H](O[C@H]3CC[C@@]4(C)C(=CC[C@H]5[C@@H]6C[C@@H]7O[C@]8(CC[C@@H](C)CO8)[C@@H](C)[C@@H]7[C@@]6(C)CC[C@@H]54)C3)O[C@H](CO)[C@@H](O)[C@@H]2O)c1OC` under 20 µM?
Result :: no (0)

Query :: State whether 20 µM exceeds IC50 recorded for `C[C@@H]1CC[C@@]2(OC1)O[C@H]1C[C@H]3[C@@H]4CC=C5C[C@@H](O[C@@H]6O[C@H](CO)[C@@H](O)[C@H](O)[C@H]6NC(=O)NCc6ccccc6)CC[C@]5(C)[C@H]4CC[C@]3(C)[C@H]1[C@@H]2C` .
Result :: no (0)

Query :: Is the reported IC50 for `C[C@@H]1CC[C@@]2(OC1)O[C@H]1C[C@H]3[C@@H]4CC=C5C[C@@H](O[C@@H]6O[C@H](CO)[C@@H](O)[C@H](O)[C@H]6NC(=O)NCc6ccc(F)cc6)CC[C@]5(C)[C@H]4CC[C@]3(C)[C@H]1[C@@H]2C` strictly below 20 µM?
Result :: no (0)
